- system: Thyrotropin receptor (Homo sapiens) (UniProt P16473)
- Sequence (P16473 whole entry, looked up): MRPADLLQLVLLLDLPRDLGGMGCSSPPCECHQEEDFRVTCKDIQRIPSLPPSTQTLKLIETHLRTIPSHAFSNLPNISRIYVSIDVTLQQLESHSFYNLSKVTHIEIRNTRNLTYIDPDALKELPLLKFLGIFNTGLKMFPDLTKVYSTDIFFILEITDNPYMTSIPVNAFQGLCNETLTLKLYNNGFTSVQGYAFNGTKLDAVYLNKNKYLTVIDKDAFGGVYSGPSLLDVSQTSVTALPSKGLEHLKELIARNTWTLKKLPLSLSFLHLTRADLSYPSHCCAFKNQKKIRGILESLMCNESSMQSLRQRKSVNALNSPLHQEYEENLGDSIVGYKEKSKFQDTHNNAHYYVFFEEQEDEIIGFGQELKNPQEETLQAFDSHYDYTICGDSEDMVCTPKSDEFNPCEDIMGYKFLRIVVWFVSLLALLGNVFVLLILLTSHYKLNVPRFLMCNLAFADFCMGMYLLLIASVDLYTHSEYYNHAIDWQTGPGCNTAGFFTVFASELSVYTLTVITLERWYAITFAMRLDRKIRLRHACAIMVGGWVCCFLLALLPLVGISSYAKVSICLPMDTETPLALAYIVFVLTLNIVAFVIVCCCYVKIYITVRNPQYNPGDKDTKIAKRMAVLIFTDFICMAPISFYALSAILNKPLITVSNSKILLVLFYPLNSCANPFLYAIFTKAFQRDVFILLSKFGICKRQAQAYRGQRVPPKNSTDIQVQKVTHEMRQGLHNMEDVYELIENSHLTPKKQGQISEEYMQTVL
- experiment notes: Secondary Concentration-Response Assay for Agonists of the Thyroid Stimulating Hormone Receptor: HTRF Activity Detection;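 note: HEK 293 cells stably expressing human TSHR with RO 20-1724 phosphodiesterase inhibitor; % of control where 0% means no effect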
- measurement context: HEK293-TSHR cells, cAMP HTRF ratio, 30 min; series mostly up to 91.7 µM
Records with an inconclusive call do not appear. Calls of active or inactive are those of the source. Calls come from the whole dose curve; as a rule, active = well fitted activation curve with a large enough effect in the signal ratio, with a control signal flat; inconclusive = small, poorly fitted or top-dose-only effect, or a change in a side signal; inactive = flat fitted curve, though single readings scatter; the % refers to the signal ratio.

compound	activation
CCN(CC)CCN1C(=O)c2ccccc2NC1c1ccc(OC)c(COc2ccc(NC(C)=O)cc2)c1 (stereo not drawn)	inactive
O=C(CN1C(=O)NC2(CCCCC2)C1=O)NCCC1=CCCCC1	1.34% [at 0.00035 µM] (inactive)
CC(C)Oc1ccccc1C1Nc2ccccc2C(=O)N1c1ccc2c(c1)OCCO2 (stereo not drawn)	inactive
COc1cc(C2Nc3ccccc3C(=O)N2c2ccccc2)c(Br)cc1OCC(=O)O (stereo not drawn)	inactive
COc1ccc(C2Nc3ccccc3C(=O)N2Cc2ccco2)cc1COc1ccccc1F (stereo not drawn)	inactive
CCOc1cc(C2Nc3ccccc3C(=O)N2c2ccccc2)ccc1O (stereo not drawn)	inactive
O=C(c1ccccc1O)N(Cc1ccco1)Cc1ccco1	inactive
COc1ccc(C2Nc3ccccc3C(=O)N2Cc2ccccc2)cc1COc1ccc([N+](=O)[O-])c(C)c1 (stereo not drawn)	inactive
CCN(c1ccccc1)S(=O)(=O)c1ccc(Oc2ccc(-n3ccnc3)cc2)nc1	0.254% [at 0.00035 µM] (inactive)
CCN(CC)CCN1C(=O)c2ccccc2NC1c1ccccc1F (stereo not drawn)	inactive
COc1ccc(C2Nc3ccccc3C(=O)N2CC(C)(C)C)cc1COc1ccc(NC(C)=O)cc1 (stereo not drawn)	inactive
O=C1c2ccccc2NC(c2ccc(Cl)cc2Cl)N1Cc1ccccc1 (stereo not drawn)	inactive
CC1(C)CC(=O)C2=C(C1)OC(N)=C(C#N)C2CCc1ccccc1 (stereo not drawn)	-0.482% [at 0.00035 µM] (inactive)

Data credit: PubChem BioAssay AID933
